- tgt: T1, Biotin sY51 PSGL-1(42-62) peptide (human, sulfotyrosine at Y51; C-terminal Lys-biotin)
- T1 construct: also called Y51(SO3) PSGL-1(42-62)
- T1 peptide: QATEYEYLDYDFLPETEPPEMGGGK
- assay name: ELISA, plate-bound mAb captures biotin peptide
value type: EC50 (nM)
Your answer is read as nM, so omit the unit and give the number.

Given 10F01 (antibody, IgG4, V domains shown) VH: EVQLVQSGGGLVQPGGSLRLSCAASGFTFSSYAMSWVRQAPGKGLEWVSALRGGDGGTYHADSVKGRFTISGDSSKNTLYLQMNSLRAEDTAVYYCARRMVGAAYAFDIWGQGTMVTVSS VL: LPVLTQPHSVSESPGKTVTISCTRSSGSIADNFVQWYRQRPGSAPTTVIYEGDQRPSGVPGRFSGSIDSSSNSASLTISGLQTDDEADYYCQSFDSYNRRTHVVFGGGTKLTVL , respond with its EC50.
36.2

Given SELK1 (antibody, V domains shown, Control anti-PSGL-1 mAb; only variable domains given) VH: QVQLQQSGPGLVKPSQTLSLTCAISGDSVSSNIAAWHWIRLSPSRGLEWLGRTYYRRSKWNYDYALSVKSRININPDTSKNLFSLQLNSVTPEDTAVYYCTRGGGRAHSAWGQGTLVTVSS VL: EIVLTQSPGTLSVSPGERATLSCRASQSVSRSHLAWYQQKPGQAPRLLIFGASSRATGIPDRFSGSGSGTDFTLTISRLEPEDFAVYYCQQYGRPGVTFGQGTKVEIK , respond with its EC50.
129

Cited source for all entries: patent US20220396632A1
